Every entry's value here was drawn from PubChem BioAssay AID1159580.

Field: normalized growth. Provide a value for each of the compounds that follow.
assay: chemical genetic growth profiling, strain panel (AID 1159580);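 note: tested at 20 µM; growth read once vehicle control cultures reached saturation at 30 °C; 1 = growth at the plate median or of vehicle wells; lower values mean less growth of the strain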; details: S. cerevisiae deletion strains, growth OD, locus YLR262C, strain YPT6 (second series), stronger effect = lower value
Screen size: about 5,500 compounds; about 2,000 (36%) were called active. Another 18% or so got no clear call; they are omitted. This is one part of the list.
Answers are plain numbers.

Compound | normalized growth
CC(=O)O[C@@H]1CC2C(C)(C)C(=O)C3OC3[C@]2(C)C2CC[C@@]3(C)[C@H](c4ccoc4)OC(=O)C4OC43[C@@]21C (some centres undefined) | 0.994
CC(=O)O[C@H]1C[C@@H](OC(C)=O)C(C)(C)C2C[C@@H](O)[C@]3(C)C(CC[C@@]4(C)[C@H](c5ccoc5)OC(=O)[C@H]5O[C@]543)[C@]21C (some centres undefined) | 0.985
CC(=O)O[C@@H]1CC2C(C)(C)[C@H](O)C=C[C@]2(C)C2CC[C@@]3(C)[C@H](c4ccoc4)OC(=O)C4OC43[C@@]21C (some centres undefined) | 1.02

Data point: CC(=O)O[C@@H]1CC2C(C)(C)[C@H](O)CC[C@]2(C)C2CC[C@@]3(C)[C@H](c4ccoc4)OC(=O)C4OC43[C@@]21C (some centres undefined) ; normalized growth = 1

---

assay: chemical genetic growth profiling, strain panel (AID 1159580);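 note: tested at 20 µM; growth read once vehicle control cultures reached saturation at 30 °C; 1 = growth at the plate median or of vehicle wells; lower values mean less growth of the strain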; conditions: S. cerevisiae deletion strains, growth OD, locus YIR030C, strain dcg1, stronger effect = lower value
Hit rate of the full screen: of about 5,500 compounds, about 2,000 (36%) were called active. Roughly 18% stayed inconclusive and do not appear here. This is one part of the list. Where a SMILES comes first, the peptide text is derived from it.
Measure: normalized growth
Answers are plain numbers.

Can you give me normalized growth for all of these, one by one?
1. C[C@]12CCC3c4ccc(OC(=O)CCC(=O)O)cc4CCC3C1CCC2=O (some centres not stated)
2. Cc1ccc(C(=O)c2ccc(CC(=O)O)n2C)cc1
3. NCC[C@@H](O)C(=O)N[C@@H]1C[C@H](N)[C@@H](O[C@H]2O[C@H](CN)[C@@H](O)[C@H](O)[C@H]2O)[C@H](O)[C@H]1O[C@H]1O[C@H](CO)[C@@H](O)[C@H](N)C1O (some centres not stated)
4. O=C(O)C(O)C(O)C(O)C(O)C(=O)O (configuration not stated)

1. 0.996
2. 0.978
3. 1.03
4. 0.986

Can you give me normalized growth for all of these, one by one?
1. CC(=O)N[C@@H](CC(=O)O)C(=O)N[C@@H](CCC(=O)O)C(=O)O (Ac-Asp-Glu-OH)
2. CCCNC(=O)NS(=O)(=O)c1ccc(Cl)cc1
3. C=C[C@@]1(C)CC(=O)[C@@]2(O)[C@](C)(O1)[C@@H](OC(C)=O)[C@@H](O)C1C(C)(C)CC[C@H](O)[C@@]12C (some centres not stated)

1. 0.992
2. 0.997
3. 0.979

Can you give me normalized growth for all of these, one by one?
1. Cc1cc(/C=C/c2ccc3cc(N(C)C)ccc3[n+]2C)c(C)n1-c1ccccc1
2. CCCn1c(=O)c2[nH]c(C3CCCC3)nc2n(CCC)c1=O
3. COc1cc(OC)c2c(=O)cc(-c3ccccc3)oc2c1

1. 1
2. 0.977
3. 0.95

Can you give me normalized growth for all of these, one by one?
1. C=NC(C(=O)NC1C(=O)N2C1SC(C)(C)C2C(=O)O)c1ccccc1 (configuration not stated)
2. COC[C@]12CN(C=O)C3[C@@H]4[C@H](OC)C1[C@]3(C1CC3(O)C(OC)C(O)C4(OC(C)=O)C1C3OC(=O)c1ccccc1)[C@@H](OC)C[C@H]2O (some centres not stated)

[1.02, 1]
